TESTED_TARGET: LCK (Homo sapiens, UniProt P06239)
Construct: purchased Carna Biosciences
Sequence (P06239 whole entry): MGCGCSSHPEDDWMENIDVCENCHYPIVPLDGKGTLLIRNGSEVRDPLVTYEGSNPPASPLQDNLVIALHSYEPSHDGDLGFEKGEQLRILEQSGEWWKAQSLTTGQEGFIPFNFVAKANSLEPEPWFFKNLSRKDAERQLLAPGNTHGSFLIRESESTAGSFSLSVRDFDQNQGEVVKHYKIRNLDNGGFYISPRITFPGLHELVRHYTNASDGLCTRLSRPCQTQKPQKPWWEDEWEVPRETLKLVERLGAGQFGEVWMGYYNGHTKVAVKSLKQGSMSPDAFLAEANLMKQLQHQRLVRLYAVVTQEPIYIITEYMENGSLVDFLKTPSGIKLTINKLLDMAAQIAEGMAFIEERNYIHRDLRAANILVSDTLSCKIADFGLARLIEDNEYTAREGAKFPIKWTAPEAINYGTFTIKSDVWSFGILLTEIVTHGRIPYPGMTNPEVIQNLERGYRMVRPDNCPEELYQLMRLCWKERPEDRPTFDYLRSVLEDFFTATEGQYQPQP
PROTOCOL: Off-chip Mobility Shift Assay (MSA) kinase inhibition
Type: biochemical
RUN_CONDITIONS: inhibitor concentration 0.01 μM
READOUT_TYPE: inhibition at 0.01 µM

COCCS(=O)(=O)Nc1ccc(F)c(C(=O)c2c[nH]c3ncc(-c4ccc(Cl)cc4)cc23)c1F [200-139]	> 20%
COCCCS(=O)(=O)Nc1ccc(F)c(C(=O)c2c[nH]c3ncc(-c4ccc(Cl)cc4)cc23)c1F [200-123]	> 20%
O=C(c1c(F)ccc(NS(=O)(=O)CCCO)c1F)c1c[nH]c2ncc(-c3ccc(Cl)cc3)cc12 [200-17]	> 30%

Next up:
Fill in reported inhibition at 0.01 µM for this entry: C/C=C/S(=O)(=O)Nc1ccc(F)c(C(=O)c2c[nH]c3ncc(-c4ccc(Cl)cc4)cc23)c1F [200-93a] > 30%

====

TESTED_TARGET: PDGFRα (Homo sapiens, UniProt P16234)
Construct: purchased Carna Biosciences
Sequence (P16234 24-1089): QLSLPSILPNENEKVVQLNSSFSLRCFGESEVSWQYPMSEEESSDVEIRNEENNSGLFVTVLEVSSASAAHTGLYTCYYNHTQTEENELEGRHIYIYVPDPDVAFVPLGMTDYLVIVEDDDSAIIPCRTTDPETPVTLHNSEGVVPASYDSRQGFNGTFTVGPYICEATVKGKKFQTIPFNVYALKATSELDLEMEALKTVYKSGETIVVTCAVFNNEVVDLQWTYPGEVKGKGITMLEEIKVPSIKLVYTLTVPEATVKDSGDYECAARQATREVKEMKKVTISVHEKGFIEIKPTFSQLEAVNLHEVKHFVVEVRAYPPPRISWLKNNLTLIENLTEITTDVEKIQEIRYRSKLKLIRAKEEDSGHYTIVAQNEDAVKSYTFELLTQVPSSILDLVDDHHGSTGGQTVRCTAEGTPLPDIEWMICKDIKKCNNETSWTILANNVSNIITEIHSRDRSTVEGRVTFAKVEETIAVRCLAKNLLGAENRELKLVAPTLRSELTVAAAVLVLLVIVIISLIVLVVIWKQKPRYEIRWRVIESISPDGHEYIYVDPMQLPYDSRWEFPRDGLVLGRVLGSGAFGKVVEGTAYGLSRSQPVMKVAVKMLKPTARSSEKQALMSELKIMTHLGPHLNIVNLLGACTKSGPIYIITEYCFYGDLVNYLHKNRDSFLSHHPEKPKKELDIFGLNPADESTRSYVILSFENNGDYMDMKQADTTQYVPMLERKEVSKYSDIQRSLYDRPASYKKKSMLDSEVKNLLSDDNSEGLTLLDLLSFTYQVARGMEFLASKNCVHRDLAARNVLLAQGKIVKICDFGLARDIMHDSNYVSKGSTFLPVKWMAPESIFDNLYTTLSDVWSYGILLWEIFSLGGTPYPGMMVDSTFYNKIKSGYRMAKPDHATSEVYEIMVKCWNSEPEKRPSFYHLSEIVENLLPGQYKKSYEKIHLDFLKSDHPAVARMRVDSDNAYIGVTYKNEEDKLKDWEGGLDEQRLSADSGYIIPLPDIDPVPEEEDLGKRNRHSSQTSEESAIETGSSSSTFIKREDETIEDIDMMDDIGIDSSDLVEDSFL
PROTOCOL: Off-chip Mobility Shift Assay (MSA) kinase inhibition
Format: biochemical
RUN_CONDITIONS: inhibitor concentration 0.01 μM
Overview of recorded inhibition at 0.01 µM for various molecules

Solved entries (count: 3):
COCCCS(=O)(=O)Nc1ccc(F)c(C(=O)c2c[nH]c3ncc(-c4ccc(Cl)cc4)cc23)c1F	< 20%
COCCS(=O)(=O)Nc1ccc(F)c(C(=O)c2c[nH]c3ncc(-c4ccc(Cl)cc4)cc23)c1F	> 20%
C/C=C/S(=O)(=O)Nc1ccc(F)c(C(=O)c2c[nH]c3ncc(-c4ccc(Cl)cc4)cc23)c1F [200-93a]	> 20%

Next up:
Fill in reported inhibition at 0.01 µM for this entry: O=C(c1c(F)ccc(NS(=O)(=O)CCCO)c1F)c1c[nH]c2ncc(-c3ccc(Cl)cc3)cc12 < 30%

====

TESTED_TARGET: PDGFRβ (Homo sapiens)
Construct: purchased Carna Biosciences
Sequence (P09619 33-1106): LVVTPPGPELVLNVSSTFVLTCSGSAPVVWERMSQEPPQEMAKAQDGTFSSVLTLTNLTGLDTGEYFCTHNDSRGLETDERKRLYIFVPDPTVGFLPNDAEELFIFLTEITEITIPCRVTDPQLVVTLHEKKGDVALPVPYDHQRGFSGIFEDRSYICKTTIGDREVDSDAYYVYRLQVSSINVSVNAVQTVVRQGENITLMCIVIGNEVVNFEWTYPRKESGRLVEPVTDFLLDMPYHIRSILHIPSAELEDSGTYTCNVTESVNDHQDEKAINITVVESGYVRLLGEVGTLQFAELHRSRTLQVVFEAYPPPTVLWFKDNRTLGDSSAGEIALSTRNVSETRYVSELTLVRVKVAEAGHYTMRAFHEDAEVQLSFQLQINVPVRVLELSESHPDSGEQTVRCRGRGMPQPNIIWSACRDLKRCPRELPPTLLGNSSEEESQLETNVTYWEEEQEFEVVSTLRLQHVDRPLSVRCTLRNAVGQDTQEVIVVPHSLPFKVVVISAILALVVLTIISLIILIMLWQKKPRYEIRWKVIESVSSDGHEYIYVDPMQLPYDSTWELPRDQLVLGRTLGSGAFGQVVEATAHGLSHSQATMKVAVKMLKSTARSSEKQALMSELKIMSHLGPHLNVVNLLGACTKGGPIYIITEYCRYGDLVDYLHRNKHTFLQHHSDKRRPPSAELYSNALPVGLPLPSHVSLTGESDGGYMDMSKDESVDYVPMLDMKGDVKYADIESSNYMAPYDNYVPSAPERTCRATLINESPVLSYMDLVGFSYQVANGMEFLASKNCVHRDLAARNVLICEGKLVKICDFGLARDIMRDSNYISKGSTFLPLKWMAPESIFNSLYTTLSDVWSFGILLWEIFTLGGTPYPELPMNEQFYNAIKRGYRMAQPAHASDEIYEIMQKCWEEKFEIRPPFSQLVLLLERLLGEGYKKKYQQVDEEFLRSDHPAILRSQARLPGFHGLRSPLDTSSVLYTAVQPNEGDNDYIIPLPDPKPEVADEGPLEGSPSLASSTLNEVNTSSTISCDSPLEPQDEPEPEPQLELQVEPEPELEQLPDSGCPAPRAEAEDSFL
PROTOCOL: Off-chip Mobility Shift Assay (MSA) kinase inhibition
Format: biochemical
RUN_CONDITIONS: inhibitor concentration 0.1 μM
Overview of recorded inhibition at 0.1 µM for various compounds

Solved entries (count: 3):
O=C(c1c(F)ccc(NS(=O)(=O)CC(O)CO)c1F)c1c[nH]c2ncc(-c3ccc(Cl)cc3)cc12 (stereo not shown) [200-73]	< 30%
O=C(c1c(F)ccc(NS(=O)(=O)CCCO)c1F)c1c[nH]c2ncc(-c3ccc(Cl)cc3)cc12 [200-17]	< 50%
CC(O)CS(=O)(=O)Nc1ccc(F)c(C(=O)c2c[nH]c3ncc(-c4ccc(Cl)cc4)cc23)c1F (stereo not shown) [200-115]	< 30%

Next up:
Fill in reported inhibition at 0.1 µM for this entry: CC(=O)CS(=O)(=O)Nc1ccc(F)c(C(=O)c2c[nH]c3ncc(-c4ccc(Cl)cc4)cc23)c1F [200-117] < 30%

====

TESTED_TARGET: BRK (Homo sapiens)
Construct: purchased Carna Biosciences
Sequence (Q13882 whole entry): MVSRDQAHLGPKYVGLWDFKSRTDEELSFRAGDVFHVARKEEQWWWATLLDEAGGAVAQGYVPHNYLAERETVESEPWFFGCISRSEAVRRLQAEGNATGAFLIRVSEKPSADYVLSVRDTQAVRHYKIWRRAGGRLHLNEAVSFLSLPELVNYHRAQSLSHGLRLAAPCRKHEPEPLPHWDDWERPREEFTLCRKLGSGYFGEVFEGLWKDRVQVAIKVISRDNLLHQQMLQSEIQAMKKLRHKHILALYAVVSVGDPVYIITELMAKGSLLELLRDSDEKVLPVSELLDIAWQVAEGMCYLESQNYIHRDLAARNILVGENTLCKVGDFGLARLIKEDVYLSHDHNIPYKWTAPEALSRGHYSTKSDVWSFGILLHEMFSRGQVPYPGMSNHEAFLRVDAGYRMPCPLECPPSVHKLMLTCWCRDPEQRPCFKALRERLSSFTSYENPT
PROTOCOL: Off-chip Mobility Shift Assay (MSA) kinase inhibition
Type: biochemical
RUN_CONDITIONS: inhibitor concentration 0.01 μM
READOUT_TYPE: inhibition at 0.01 µM

Solved entries (count: 3):
O=C(c1c(F)ccc(NS(=O)(=O)CCCO)c1F)c1c[nH]c2ncc(-c3ccc(Cl)cc3)cc12	> 30%
C/C=C/S(=O)(=O)Nc1ccc(F)c(C(=O)c2c[nH]c3ncc(-c4ccc(Cl)cc4)cc23)c1F [200-93a]	> 30%
COCCS(=O)(=O)Nc1ccc(F)c(C(=O)c2c[nH]c3ncc(-c4ccc(Cl)cc4)cc23)c1F	> 20%

Fill in reported inhibition at 0.01 µM for this entry: COCCCS(=O)(=O)Nc1ccc(F)c(C(=O)c2c[nH]c3ncc(-c4ccc(Cl)cc4)cc23)c1F > 20%
